# experimental details: Toxicity liver stage against HepG2, at 10uM
# Type: cell-based
# Design: test concentration 10 uM, cell line HepG2-A16-CD81EGFP
# assay context: human, HepG2-A16-CD81EGFP cells; read-out: INHIBITION
# key: entry, value: cytotoxicity at 10 µM
Dear colleague, please return just the value in %, with no unit written.

>  <molecule>
COCc1noc(-c2cc(Cl)c3c(c2)OCO3)n1

>  <cytotoxicity at 10 µM, %>
-4.05

$$$$
>  <molecule>
COc1ccc(CN2CC(=O)N(c3ccc(C)cc3)CC2C)cc1O (stereo not drawn)

>  <cytotoxicity at 10 µM, %>
4.84

$$$$
>  <molecule>
CC(=O)Nc1ccc2nc(CN(C)Cc3noc(C)n3)ccc2c1

>  <cytotoxicity at 10 µM, %>
3.47

$$$$
>  <molecule>
CC(C)n1nnnc1-c1ccc(NC(=O)C(C)(C)C#N)cc1F

>  <cytotoxicity at 10 µM, %>
-7.36

$$$$
>  <molecule>
Cc1nc(C)c(C(=O)NCCOc2ccc(C(F)(F)F)cn2)o1

>  <cytotoxicity at 10 µM, %>
2.42

$$$$
>  <molecule>
CC(C)(C)N1CC(C(=O)N2CCN(CCc3ccccc3)CC2)CC1=O (stereo not drawn)

>  <cytotoxicity at 10 µM, %>
23.4

$$$$

Please give the measured cytotoxicity at 10 µM for this molecule: CN(C)C(CNC(=O)N(Cc1ccco1)C1CC1)c1cccs1 (stereo not drawn)
3.06

"CCCNC(=O)CNC(=O)CCc1ccccc1Br" ?
12.3

Same question for CCC1(C(=O)O)CCCN(CCOCc2ccccc2)C1 (stereo not drawn) please.
7.33

====

# experimental details: Toxicity liver stage against HepG2, at 10uM
# Type: cell-based
# Set-up: test concentration 10 uM, cell line HepG2-A16-CD81EGFP
# assay context: human, HepG2-A16-CD81EGFP cells; read-out: INHIBITION
observation type: cytotoxicity at 10 µM (%)
Could you give me the number in %? Just the number is fine.

>  <molecule>
Nc1ccc(C(=O)N2CCC(Oc3cccc(C(F)(F)F)c3)CC2)cn1

>  <cytotoxicity at 10 µM, %>
5.3

$$$$

Can you share its cytotoxicity at 10 µM? I mean this molecule: "O=C(O)c1cc(-c2ccncc2)cc(S(=O)(=O)NCc2ccccn2)c1"
-51.9

Note, next up: CC(C)(C)c1cnc(CN2C(=O)CC3(CCSC3)C2=O)o1 (stereo not given)
7.28

Same question for "COc1cccc(C(=O)Nc2ccc(OC3CCN(C)CC3)cc2)c1" please.
-6.88

Moving on to the next molecule: "COCCC(=O)N1C[C@H](C(C)C)[C@@H](N(C)C)C1"
5.75

====

# experimental details: Toxicity liver stage against HepG2, at 10uM
# Type: cell-based
# Design: test concentration 10 uM, cell line HepG2-A16-CD81EGFP
# assay context: human, HepG2-A16-CD81EGFP cells; read-out: INHIBITION
Listing of recorded cytotoxicity at 10 µM by entry.
Expressed in %, but write only the number.

These recorded examples may help you get a feel for the data.
>  <compound>
CC(C)OCCSCCn1nc2ccccn2c1=O

>  <cytotoxicity at 10 µM, %>
3.36

$$$$
>  <compound>
CCc1nccn1C1CCCN(C(=O)c2cccc3c2OCO3)C1 (stereo not drawn)

>  <cytotoxicity at 10 µM, %>
-8.87

$$$$
>  <compound>
CN(Cc1ccccn1)C1COC2(CCN(Cc3cccnc3)CC2)C1 (stereo not drawn)

>  <cytotoxicity at 10 µM, %>
-1.42

$$$$
>  <compound>
O=C(CCn1ccccc1=O)Nc1ccc(F)c(Cl)c1

>  <cytotoxicity at 10 µM, %>
13.1

$$$$
>  <compound>
CCn1ccc(-c2nnc(SCC(=O)NCC(C)C)n2CC)n1

>  <cytotoxicity at 10 µM, %>
5.44

$$$$
>  <compound>
O=C(C1CN(c2ncc(F)cn2)CC12CCOCC2)N1CC=CC1 (stereo not drawn)

>  <cytotoxicity at 10 µM, %>
9.49

$$$$

Give its cytotoxicity at 10 µM value. Item: CC(=O)N1CCC(C(=O)NC2CC(C)(C)Oc3cc(C)ccc32)CC1 (stereo not drawn)
-5.41

Another compound to check: Cc1n[nH]c2ncc(CNC3CCCN(c4ncccn4)C3)cc12 (stereo not drawn)
23.6

Now this one: "O=C(CN1CCc2c(ncn2C2CC2)C1)NC1CCOCC1"
-13.4

Repeat with CC1c2ncc(CNC(=O)C3CC3)n2CCN1Cc1ccncc1 (stereo not drawn)
-5.72

Now this one: "CCOc1cccc(COC(=O)c2cscn2)n1"
-0.262

// same read-out, input: "CC(C)OCc1cccc(CNc2cnn(C)c(=O)c2Cl)c1"
29.5

Query "O=C(NCC1CC1)[C@@H]1C[C@@H]2CCN(Cc3ccccc3)C[C@H]2O1" next
4.21
